Biological target: T1, cynomolgus (Macaca fascicularis) ST2L extracellular domain with C-terminal His6 tag (Macaca fascicularis (cynomolgus), UniProt Q01638 19-321 (human entry))
T1 construct: also called cyno ST2L-ECD; cynoST2L-ECD
T1 chain: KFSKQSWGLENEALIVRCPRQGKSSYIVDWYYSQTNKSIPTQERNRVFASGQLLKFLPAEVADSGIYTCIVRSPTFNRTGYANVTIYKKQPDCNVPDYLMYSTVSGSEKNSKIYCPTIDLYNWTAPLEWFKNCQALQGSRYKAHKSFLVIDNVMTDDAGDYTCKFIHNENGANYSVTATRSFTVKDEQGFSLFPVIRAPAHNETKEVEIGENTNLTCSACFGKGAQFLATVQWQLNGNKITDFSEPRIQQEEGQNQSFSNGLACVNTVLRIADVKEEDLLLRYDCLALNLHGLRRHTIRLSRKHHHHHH
Experiment: SPR, mAb captured, ST2L-ECD in solution
Reported kon values are given for each entry in this list.
Just the number in M⁻¹ s⁻¹, nothing appended.

Study these solved cases before continuing.
>  <BINDER>
STLM221 (antibody, V domains shown, frameworks VH3-23 / Vk-L6) VH: EVQLLESGGGLVQPGGSLRLSCAASGFTFSIYDMFWVRQAPGKGLEWVSYIRGEGGDTNYADSVKGRFTISRDNSKNTLYLQMNSLRAEDTAVYYCARDPWSTEGSFFVLDYWGQGTLVTVSS VL: EIVLTQSPATLSLSPGERATLSCRASQSVDDDLAWYQQKPGQAPRLLIYDASNRATGIPARFSGSGSGTDFTLTISSLEPEDFAVYYCQQYIGAPITFGQGTKVEIK

>  <kon / M⁻¹ s⁻¹>
6.04e+06

$$$$
>  <BINDER>
STLM123 (antibody, V domains shown, frameworks VH3-23 / Vk-L6) VH: EVQLLESGGGLVQPGGSLRLSCAASGFTFSDYAMFWVRQAPGKGLEWVSAIEGEGGETNYADSVKGRFTISRDNSKNTLYLQMNSLRAEDTAVYYCARDPWSTEGSFFVLDYWGQGTLVTVSS VL: EIVLTQSPATLSLSPGERATLSCRASQSVDDDLAWYQQKPGQAPRLLIYDASNRATGIPARFSGSGSGTDFTLTISSLEPEDFAVYYCQQYITAPLTFGQGTKVEIK

>  <kon / M⁻¹ s⁻¹>
1e+08

$$$$

Turning now to a further record.
Prompt line: Need kon, item STLM227 (antibody, V domains shown, VH STLH201 + VL STLL277) VH: EVQLVQSGAEVKKPGATVKISCKVSAFNIKDDYMHWVQQAPGKGLEWMGRIDPAIGNTEYAEKFQGRVTITADTSTDTAYMELSSLRSEDTAVYYCATGDFYAMAYWGQGTLVTVSS VL: DIQLTQSPSFLSASVGDRVTITCITNTDIDDVIHWYQQKPGKAPKLLIYEGNTLRPGVPSRFSGSGSGTEFTLTISSLQPEDFATYYCLQSDNMLTFGQGTKLEIK
Response line: 1e+08
